Where do these numbers come from? They come from ChEMBL document CHEMBL1147951.

Tested on: Staphylococcus aureus
ASSAY DETAILS: Antimicrobial activity against methicillin-resistant Staphylococcus aureus by broth microdilution assay
Assay type: functional
Binary label based on MIC with cut-off 3 mM: below gives T, not below gives F.

SMI	ASSIGNED LABEL
CCCCCCCCCCN(CCCCCCCCCC)C(=O)NC(CCC(=O)O)(CCC(=O)O)CCC(=O)O	F
CCCCCCCCCCCN(CCCCCCCCCCC)C(=O)NC(CCC(=O)O)(CCC(=O)O)CCC(=O)O	F
CCCCCCCCCCCCCCCCCCNC(=O)NC(CCC(=O)O)(CCC(=O)O)CCC(=O)O	T
CCCCCCCN(CCCCCCC)C(=O)NC(CCC(=O)O)(CCC(=O)O)CCC(=O)O	F
CCCCCCCCCN(CCCCCCCCC)C(=O)NC(CCC(=O)O)(CCC(=O)O)CCC(=O)O	F

Here's an entry: "CCCCCCCCCCCCCCNC(=O)NC(CCC(=O)O)(CCC(=O)O)CCC(=O)O" . Is its MIC below 3 mM?
F

Here's an entry: "CCCCCCCCCCCCCCCCCCCCCCNC(=O)NC(CCC(=O)O)(CCC(=O)O)CCC(=O)O" . Is its MIC below 3 mM?
T

Here's an entry: "CCCCCCCCCCCCCCCCNC(=O)NC(CCC(=O)O)(CCC(=O)O)CCC(=O)O" . Is its MIC below 3 mM?
F

Here's an entry: "CCCCCCCCCCCCCCCCCCCCNC(=O)NC(CCC(=O)O)(CCC(=O)O)CCC(=O)O" . Is its MIC below 3 mM?
T

---

System: Candida albicans
ASSAY DETAILS: Antimicrobial activity against Candida albicans by broth microdilution assay
Format: functional
Listed below: MIC values for each entry.

Examples from the recorded data:
SMI	TARGET OR TEST SYSTEM	MIC
CCCCCCCCCCCCCCCCCCCCCCNC(=O)NC(CCC(=O)O)(CCC(=O)O)CCC(=O)O	Candida albicans	2600 µM
CCCCCCCCCCCCCCNC(=O)NC(CCC(=O)O)(CCC(=O)O)CCC(=O)O	Candida albicans	1600 µM
CCCCCCCCCC(CCCCCCCCC)NC(=O)NC(CCC(=O)O)(CCC(=O)O)CCC(=O)O	Candida albicans	> 11000 µM
CCCCCCCCCCCN(CCCCCCCCCCC)C(=O)NC(CCC(=O)O)(CCC(=O)O)CCC(=O)O	Candida albicans	> 10000 µM

Record "CCCCCCCCCCCCCCCCNC(=O)NC(CCC(=O)O)(CCC(=O)O)CCC(=O)O" , field MIC: 47 µM

---

Listed below: log10 MIC values for each entry.
Test system: Cryptococcus neoformans
ASSAY DETAILS: Antimicrobial activity against Cryptococcus neoformans by broth microdilution assay
Assay type: functional
Reminder: these figures are log10 of reported MIC, in µM before transformation.

Examples from the recorded data:
SMI	NUMERIC VALUE
CCCCCCCCCCCC(CCCCCCCCCCC)NC(=O)NC(CCC(=O)O)(CCC(=O)O)CCC(=O)O	0.86
CCCCCCCCCCCCCCCCCCCCCCNC(=O)NC(CCC(=O)O)(CCC(=O)O)CCC(=O)O	3.72
CCCCCCCCCC(CCCCCCCCC)NC(=O)NC(CCC(=O)O)(CCC(=O)O)CCC(=O)O	1.81
CCCCCCCCN(CCCCCCCC)C(=O)NC(CCC(=O)O)(CCC(=O)O)CCC(=O)O	2.74
CCCCCCCCCCC(CCCCCCCCCC)NC(=O)NC(CCC(=O)O)(CCC(=O)O)CCC(=O)O	1.18

Record "CCCCCCCC(CCCCCCC)NC(=O)NC(CCC(=O)O)(CCC(=O)O)CCC(=O)O" , field log10 MIC: 3.04

Record "CCCCCCCCCCCCCCCCCCNC(=O)NC(CCC(=O)O)(CCC(=O)O)CCC(=O)O" , field log10 MIC: 1.95

Record "CCCCCCCCCCCCCCCCCCCCNC(=O)NC(CCC(=O)O)(CCC(=O)O)CCC(=O)O" , field log10 MIC: 3.43

Record "CCCCCCCCCCCCCCCCNC(=O)NC(CCC(=O)O)(CCC(=O)O)CCC(=O)O" , field log10 MIC: 1.67

---

System: Cryptococcus neoformans
ASSAY DETAILS: Antimicrobial activity against Cryptococcus neoformans by broth microdilution assay
Type: functional
EXPERIMENTAL ENDPOINT: MIC

SMI	RESULT
CCCCCCCCCN(CCCCCCCCC)C(=O)NC(CCC(=O)O)(CCC(=O)O)CCC(=O)O	260 µM
CCCCCCCCC(CCCCCCCC)NC(=O)NC(CCC(=O)O)(CCC(=O)O)CCC(=O)O	270 µM
CCCCCCCCCCN(CCCCCCCCCC)C(=O)NC(CCC(=O)O)(CCC(=O)O)CCC(=O)O	62 µM

Record "CCCCCCCN(CCCCCCC)C(=O)NC(CCC(=O)O)(CCC(=O)O)CCC(=O)O" , field MIC: 1200 µM

Record "CCCCCCCCCCCCC(CCCCCCCCCCCC)NC(=O)NC(CCC(=O)O)(CCC(=O)O)CCC(=O)O" , field MIC: 6.9 µM

Record "CCCCCCCCCCCN(CCCCCCCCCCC)C(=O)NC(CCC(=O)O)(CCC(=O)O)CCC(=O)O" , field MIC: > 950 µM

Record "CCCCCCCCCCCCCCNC(=O)NC(CCC(=O)O)(CCC(=O)O)CCC(=O)O" , field MIC: 1600 µM

---

Tested on: Candida albicans
ASSAY DETAILS: Antimicrobial activity against Candida albicans by broth microdilution assay
Type: functional
EXPERIMENTAL ENDPOINT: MIC (mM)
// note: answer is a bare numeric in mM

SMI	MIC / mM
CCCCCCCCC(CCCCCCCC)NC(=O)NC(CCC(=O)O)(CCC(=O)O)CCC(=O)O	0.74
CCCCCCCCCCCCCCCCCCNC(=O)NC(CCC(=O)O)(CCC(=O)O)CCC(=O)O	1.4
CCCCCCCCCCCCCCCCCCCCNC(=O)NC(CCC(=O)O)(CCC(=O)O)CCC(=O)O	2.7

Record "CCCCCCCC(CCCCCCC)NC(=O)NC(CCC(=O)O)(CCC(=O)O)CCC(=O)O" , field MIC: 3.1

---

System: Candida albicans
ASSAY DETAILS: Antimicrobial activity against Candida albicans by broth microdilution assay
Format: functional
Listed below: MIC values for each entry.

Examples from the recorded data:
SMI	MIC
CCCCCCCCCCN(CCCCCCCCCC)C(=O)NC(CCC(=O)O)(CCC(=O)O)CCC(=O)O	> 11 mM
CCCCCCCCCCCC(CCCCCCCCCCC)NC(=O)NC(CCC(=O)O)(CCC(=O)O)CCC(=O)O	> 10 mM
CCCCCCCCCN(CCCCCCCCC)C(=O)NC(CCC(=O)O)(CCC(=O)O)CCC(=O)O	> 12 mM
CCCCCCCCCCC(CCCCCCCCCC)NC(=O)NC(CCC(=O)O)(CCC(=O)O)CCC(=O)O	> 11 mM

Record "CCCCCCCCCCCCC(CCCCCCCCCCCC)NC(=O)NC(CCC(=O)O)(CCC(=O)O)CCC(=O)O" , field MIC: > 9.8 mM
